These data points were gathered from PubChem BioAssay (NCI).

Please respond with reported growth for every item in the list.
Test system: NCI-H460 lung
METHOD_DESCRIPTION: NCI-60 one-dose screen, 48 h (100 = growth as untreated, 0 = no growth, -100 = all killed)
PROTOCOL_CONDITIONS: 10 µM unless noted
About 83,000 compounds went through this panel and 20% of them were active in at least one assay; those are over-represented in the sample as a whole.
Numbers only, in %.

Record CC(=O)N1Cc2ccccc2C(C)Cc2cc(Cl)ccc21 (centres undefined) : what is its growth with NCI-H460 lung?
105

Record CCC(c1cccc(Br)c1)C(C(=O)O)c1ccc(OC)cc1 (centres undefined) : what is its growth with NCI-H460 lung?
107

Record C=C1C(=O)O[C@H]2[C@H]1CC/C(Cn1cc(-c3ccc(N)cc3)nn1)=C\CC[C@@]1(C)O[C@@H]21 : what is its growth with NCI-H460 lung?
74

***
Record COC1=CC(c2ccc[nH]2)=N/C1=C\c1[nH]c(C)c(C(=O)CCCCC(=O)Oc2ccc3c(c2)CCC2C3CC[C@]3(C)[C@@H](O)CC[C@@H]23)c1C (some centres undefined) : what is its growth with NCI-H460 lung?
29.6
